# measurement_target: CDK2-CYCLINA (Homo sapiens, UniProt P24941)
# Construct: purchased Millipore
# protocol: Inhibition assay, microfluidic LabChip (Nanosyn);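 further: values are IC50 from a concentration-response series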
# Type: biochemical
# experimental_context: Table 3a
parameter: IC50 (nM)

Field: example entries. Status: answers known.
1) CN(C)C(=O)c1cc2cnc(Nc3ccc(N4CCN(CCO)CC4)c(F)c3)nc2n1C12CC(C1)C2 [Compound A74]: 245
2) CC(C)N1CCN(c2ccc(Nc3ncc4cc(C(=O)N(C)C)n(C56CC(C5)C6)c4n3)cc2)CC1 (single isomer, unassigned) [Compound A89]: 400
3) CN1CC2(C1)CN(c1ccc(Nc3ncc4cc(C(=O)N(C)C)n(C56CC(C5)C6)c4n3)cc1)C2 [Compound A69]: 1470
4) CN1CCN(c2ccc(Nc3ncc4cc(C(=O)N(C)C)n(C56CC(C5)C6)c4n3)cc2)CC1 [Compound A84]: 185

(I) CN(C)CCOc1ccc(Nc2ncc3cc(C(=O)N(C)C)n(C45CC(C4)C5)c3n2)cc1F [Compound A93]
(II) CN(C)C(=O)c1cc2cnc(Nc3ccc(C4=CCNCC4)cn3)nc2n1C12CC(C1)C2 [Compound A87]
q: Could you kindly indicate whether I or II has the higher IC50 value? Could you answer with the label of the item you picked?
a: II

(1) CC1CN(c2ccc(Nc3ncc4cc(C(=O)N(C)C)n(C56CC(C5)C6)c4n3)cc2)CC(C)N1 (stereo not drawn) [Compound A90]
(2) CN(C)C(=O)c1cc2cnc(Nc3ccc(N4CCNCC4)cc3)nc2n1C12CC(C1)C2 [Compound A83]
(3) CN(C)C(=O)c1cc2cnc(Nc3ccc(N4CCNCC4)cn3)nc2n1C12CC(C1)C2 [Compound A86]
(4) CN(C)C(=O)c1cc2cnc(Nc3ccc(N4CCNCC4)c(F)c3)nc2n1C12CC(C1)C2 [Compound A85]
(5) CN(C)C(=O)c1cc2cnc(Nc3ccc(S(C)(=O)=O)cc3)nc2n1C12CC(C1)C2 [Compound A79]
q: Sort ascending by IC50. Provide the labels, sequenced as the question asks.
a: 5, 4, 2, 1, 3
